Documented The autosampler MCM ± SD (48h) across a set of molecules
TEST_SUMMARY: Stability of the analytes in human plasma at QC levels
Type: in vitro ADME
MEASUREMENT_PARAMETERS: middle QC; autosampler r.t., 48 h; n = 5

- MOLECULE: "CCC(=O)OCC(=O)[C@@]1(OC(=O)CC)[C@@H](C)C[C@H]2[C@@H]3CCC4=CC(=O)C=C[C@]4(C)[C@@]3(F)[C@@H](O)C[C@@]21C [BDP, betamethasone dipropionate]"
  The autosampler MCM ± SD (48h): "4.387 ± 0.103 × 10^−9 mol·dm^−3"
- MOLECULE: "CCC(=O)OCC(=O)[C@@]1(O)[C@@H](C)C[C@H]2[C@@H]3CCC4=CC(=O)C=C[C@]4(C)[C@@]3(F)[C@@H](O)C[C@@]21C [B21P, betamethasone 21-monopropionate]"
  The autosampler MCM ± SD (48h): "2.007 ± 0.156 × 10^−9 mol·dm^−3"
- MOLECULE: "C[C@H]1C[C@H]2[C@@H]3CCC4=CC(=O)C=C[C@]4(C)[C@@]3(F)[C@@H](O)C[C@]2(C)[C@@]1(O)C(=O)CO"
  The autosampler MCM ± SD (48h): "10.38 ± 0.513 × 10^−9 mol·dm^−3"
- MOLECULE: "CCC(=O)O[C@]1(C(=O)CO)[C@@H](C)C[C@H]2[C@@H]3CCC4=CC(=O)C=C[C@]4(C)[C@@]3(F)[C@@H](O)C[C@@]21C [B17P, betamethasone 17-monopropionate]"
  The autosampler MCM ± SD (48h): "1.114 ± 0.129 × 10^−9 mol·dm^−3"
- MOLECULE: "C[C@H]1C[C@H]2[C@@H]3CCC4=CC(=O)C=C[C@]4(C)[C@@]3(F)[C@@H](O)C[C@]2(C)[C@@]1(O)C(=O)COP(=O)([O-])[O-].[Na+].[Na+] [BSP, betamethasone sodium phosphate]"
  The autosampler MCM ± SD (48h): "44.38 ± 5.581 × 10^−9 mol·dm^−3"
